The origin of these recorded values is the supplement of paper PMC7877785.

Test: self-splicing fitness, log relative to wild type (ln ratio); higher = more splicing; Tetrahymena group I intron in knt gene, E. coli kanamycin selection, DiMSum; sequences stand for … in CUCUCU…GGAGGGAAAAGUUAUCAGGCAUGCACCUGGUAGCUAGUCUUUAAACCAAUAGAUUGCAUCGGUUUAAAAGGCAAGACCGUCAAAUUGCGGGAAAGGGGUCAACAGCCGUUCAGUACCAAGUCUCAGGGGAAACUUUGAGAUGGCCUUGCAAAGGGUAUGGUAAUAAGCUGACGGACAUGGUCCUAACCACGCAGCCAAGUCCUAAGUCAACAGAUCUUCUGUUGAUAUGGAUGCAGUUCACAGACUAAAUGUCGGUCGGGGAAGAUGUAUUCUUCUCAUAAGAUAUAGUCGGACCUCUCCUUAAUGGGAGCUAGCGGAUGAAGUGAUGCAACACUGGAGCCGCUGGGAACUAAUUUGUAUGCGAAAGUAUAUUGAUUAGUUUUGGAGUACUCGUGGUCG;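 also: selection with 25 µg/mL kanamycin versus none on LB agar overnight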
Settings: 37 °C
Okay, here is how we bin by self-splicing fitness (ln): bottom range (below -2), center range (-2 to below -0.9), top range (-0.9 or more)

Answered cases to consult:
SEQ STRING: ACGUAGCAAUAUUACGACAC
GROUP LABEL: top range
--
SEQ STRING: AUUGAGCAAUAUUACGCGAU
GROUP LABEL: bottom range
--
SEQ STRING: UCUCAGCAAUAUUACGGUGG
GROUP LABEL: bottom range
--
SEQ STRING: CCCCAGCAAUAUUACGGAUC
GROUP LABEL: bottom range
--
SEQ STRING: CCGCAGCAAUAUUACGGGUG
GROUP LABEL: top range

# classify by self-splicing fitness (ln) band: CACAAGCAAUAUUACGCGGC
bottom range

# classify by self-splicing fitness (ln) band: AACGAGCAAUAUUACGAUCG
center range

# classify by self-splicing fitness (ln) band: UACUAGCAAUAUUACGGGAC
bottom range

###

Assay: self-splicing fitness, log relative to wild type (ln ratio); higher = more splicing; Tetrahymena group I intron in knt gene, E. coli kanamycin selection, DiMSum; sequences stand for … in CUCUCU…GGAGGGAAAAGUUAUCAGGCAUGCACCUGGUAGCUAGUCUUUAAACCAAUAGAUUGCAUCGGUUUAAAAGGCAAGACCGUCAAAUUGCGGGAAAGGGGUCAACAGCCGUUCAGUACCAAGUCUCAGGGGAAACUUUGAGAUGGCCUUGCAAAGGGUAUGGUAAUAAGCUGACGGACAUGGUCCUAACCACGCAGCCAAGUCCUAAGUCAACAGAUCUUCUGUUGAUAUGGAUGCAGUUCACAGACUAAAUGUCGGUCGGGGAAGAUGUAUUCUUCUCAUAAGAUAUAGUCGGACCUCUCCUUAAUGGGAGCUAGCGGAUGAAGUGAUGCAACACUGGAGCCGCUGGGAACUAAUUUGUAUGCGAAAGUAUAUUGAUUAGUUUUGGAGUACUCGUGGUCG
Details: 30 °C
# maps each entry to its self-splicing fitness (ln)
Form: value (number only, do not type unit).

SEQ STRING: GCCUAGCAAUAUUACGAAUU
self-splicing fitness (ln): -2.09
--
SEQ STRING: GAAGAGCAAUAUUACGAUGU
self-splicing fitness (ln): -2.54
--
SEQ STRING: CAAAAGCAAUAUUACGCUCG
self-splicing fitness (ln): -1.25
--
SEQ STRING: CACUAGCAAUAUUACGAAAA
self-splicing fitness (ln): -3.29

Give recorded self-splicing fitness (ln). AGCAAGCAAUAUUACGCGAG
-3.61

Give recorded self-splicing fitness (ln). CAAGAGCAAUAUUACGGGUG
-1.74

Give recorded self-splicing fitness (ln). CUCCAGCAAUAUUACGUUAC
-3.6
